system: Hek293T; assay: Primary qHTS to identify gynecologic anti-cancer compounds using libraries of approved drugs and bioactive compounds (AID 1345084); details: Gynecologic cancer cell panel viability, ATPlite luminescence, 48 h, control line for the selectivity index; series mostly up to 57.5 µM; note: nearly all actives have a fitted effect of over 55% in size
Results filed as inconclusive are left out. Active and inactive are the calls of the source. Calls come from the whole dose curve; as a rule, active = well fitted cell-killing curve with a large enough effect; inconclusive = small, poorly fitted or top-dose-only effect, or effect the other way; inactive = flat fitted curve, though single readings scatter.
Entry note: the call must match one of active, inactive

Problem: Hey, what did the test say about CC(Cc1cc2c(c(C(N)=O)c1)N(CCCO)CC2)NCCOc1ccccc1OCC(F)(F)F (stereo not given) ?
Solution: inactive

Problem: Hey, what did the test say about CC(C)C[C@H](CC(=O)NO)C(=O)N[C@@H](Cc1ccc2ccccc2c1)C(=O)N[C@@H](C)C(=O)NCCN ?
Solution: inactive

Problem: Hey, what did the test say about O=C(c1ccccc1)c1ccc2nc(NC(=O)c3csc(C4CCN(c5ncnc6ccsc56)CC4)n3)[nH]c2c1 ?
Solution: active

Problem: Hey, what did the test say about C=C1CCC2C(C)(COC(C)=O)CCCC2(C)C1CCC(C)CC(=O)O (stereo not given) ?
Solution: inactive

Problem: Hey, what did the test say about CCCCc1ccc(C(=O)Nc2cc(-c3ccc(Cl)cc3)nn2-c2ccc(Cl)cc2)cc1 ?
Solution: inactive

Problem: Hey, what did the test say about O=C(O)[C@H](Cc1ccc(Nc2nccc3ccncc23)cc1)NC1=C(Br)C(=O)C12CCCCC2 ?
Solution: inactive

Problem: Hey, what did the test say about COc1ccc(C[C@H](N)C(=O)N[C@@H]2[C@H](O)[C@H](n3cnc4c(N(C)C)ncnc43)O[C@@H]2CO)cc1 ?
Solution: active

Problem: Hey, what did the test say about Cc1cc(C(=O)N2Cc3cnn(C)c3Nc3ccccc32)ccc1CNC(=O)N1CCC[C@H]1C(=S)N1CCCN(C)CC1 ?
Solution: inactive

Problem: Hey, what did the test say about Cc1ccc(C)c(OCCn2cc(C(=O)O)c3ccccc32)c1 ?
Solution: inactive

Problem: Hey, what did the test say about CCCOc1ccc(-c2nc(OC)c3ccccc3n2)cc1 ?
Solution: inactive

Problem: Hey, what did the test say about C=C1C(OC(C)=O)CCC2(C)CC3(OC)OC(=O)C(C)=C3CC12 (stereo not given) ?
Solution: inactive

Problem: Hey, what did the test say about O=C(Nc1ccc(Cl)cc1F)c1ccccc1O ?
Solution: active

Problem: Hey, what did the test say about COc1cc(O)cc(/C=C/c2ccc(O[C@@H]3O[C@H](CO)[C@@H](O)[C@H](O)[C@H]3O)cc2)c1 ?
Solution: inactive

Problem: Hey, what did the test say about CC(=O)O[C@H]1C[C@@]2(C)[C@@H](CC[C@H]3[C@@]4(C)C=CC(=O)[C@@H](C)[C@@H]4[C@H](O)C(=O)[C@@]32C)/C1=C(/CCC=C(C)C)C(=O)O ?
Solution: inactive

Problem: Hey, what did the test say about Cc1c2cc(c(C(=O)O)c1C)OC1OC(C(O)C(O)C1O)C(O)C(O)C1OC(O2)C(O)C(O)C1O (stereo not given) ?
Solution: inactive

Problem: Hey, what did the test say about CC1=C(C(=O)O[C@@H]2O[C@H](COC3OCC(O)C(O)C3O)[C@@H](O)[C@H](O)[C@H]2O)C(C)(C)CCC1 (stereo not given in full) ?
Solution: inactive

Problem: Hey, what did the test say about C[C@]1(CO)CCC[C@]2(C)C3=C(CCC12)COC3 (stereo not given in full) ?
Solution: inactive

Problem: Hey, what did the test say about O=C(NCc1ccccn1)Nc1nnc(-c2ccco2)o1 ?
Solution: inactive

Problem: Hey, what did the test say about CN(C)CCn1cc(S(=O)(=O)c2cccc(F)c2)c2cccnc21 ?
Solution: inactive

Problem: Hey, what did the test say about O=C(O)c1ccccc1NCCc1ccccc1 ?
Solution: inactive

----------
test system: CRL-7250; test: Cytotoxic Profiling of Annotated Libraries Using Quantitative High-Throughput Screening (AID 1296008); conditions: Five cell lines viability, CellTiter-Glo ATP luminescence, 48-72 h; stronger effect = lower value; note: % is set by controls: 0 for no effect and ±100 for the full control effect; nearly all actives have a fitted effect of over 60% in size
Results filed as inconclusive are left out. Calls of active or inactive are those of the source. Calls follow the shape of the dose curve; as a rule, active = well fitted inhibition curve with a large enough effect; inconclusive = small, poorly fitted or top-dose-only effect; inactive = flat fitted curve, though single readings scatter.
Measured attribute: max response

Problem: Can you look up the measured max response of CC1=C(/C=C/C(C)=C\C=C\C(C)=C/C(=O)O)C(C)(C)CCC1 for me?
Solution: -50.6% (inactive)

Problem: Can you look up the measured max response of CC(=O)O[C@@H]1[C@@H](CO)O[C@@](CO)(O[C@H]2O[C@H](COC(=O)/C=C/c3ccccc3)[C@@H](O)[C@H](O)[C@H]2O)[C@H]1O for me?
Solution: -0.112% (inactive)

Problem: Can you look up the measured max response of CC(C)NCC(C(=O)N1CCN(c2ncnc3c2C(C)CC3O)CC1)c1ccc(Cl)cc1 (stereo unspecified) for me?
Solution: -1.68% (inactive)

Problem: Can you look up the measured max response of CC1=C(CCC(C)CC(=O)O)[C@@]2(C)CCCC(C)(C)C2CC1=O (stereo partly specified) for me?
Solution: 3.13% (inactive)

Problem: Can you look up the measured max response of O=C(O[C@H]1[C@@H]2C=CO[C@@H](O[C@@H]3O[C@H](CO)[C@@H](O)[C@H](O)[C@H]3O)[C@@H]2[C@@]2(CO)O[C@@H]12)c1ccccc1 for me?
Solution: -3.06% (inactive)

Problem: Can you look up the measured max response of CC(=O)O[C@H]1C[C@@]2(C)[C@@H](CC[C@H]3[C@@]4(C)C=CC(=O)[C@@H](C)[C@@H]4[C@H](O)C(=O)[C@@]32C)/C1=C(/CCC=C(C)C)C(=O)O for me?
Solution: -28.1% (inactive)

----------
test system: OV90; test: Primary qHTS to identify gynecologic anti-cancer compounds using libraries of approved drugs and bioactive compounds (AID 1345084); details: Gynecologic cancer cell panel viability, ATPlite luminescence, 48 h; series mostly up to 57.5 µM; note: nearly all actives have a fitted effect of over 55% in size; for activity change, negative = cytotoxicity: % is set by controls: 0 for no effect and ±100 for the full control effect
Inconclusive results are not listed. Calls of active or inactive are those of the source. Calls follow the shape of the dose curve; as a rule, active = well fitted cell-killing curve with a large enough effect; inconclusive = small, poorly fitted or top-dose-only effect, or effect the other way; inactive = flat fitted curve, though single readings scatter.
Measured attribute: activity change, negative = cytotoxicity

INSERT INTO results (compound, endpoint_result) VALUES
  ('O=C(CCc1nnc2n(Cc3ccc(Cl)cc3)c(=O)c3ccccc3n12)NCCC1=CCCCC1', 'inactive'),
  ('CC1=CCC(C(C)(C)O[C@@H]2O[C@H](CO[C@@H]3O[C@@H](C)[C@H](O)[C@@H](O)[C@H]3O)[C@@H](O)[C@H](O)[C@H]2O)CC1 (some centres undefined)', 'inactive'),
  ('O=C(O)c1cc2cccc([N+](=O)[O-])c2[nH]1', 'inactive'),
  ('CC12CCC(=O)C=C1C(O)CC1C2C(O)CC2(C)C1CC[C@]2(O)C(=O)CO (some centres undefined)', '9.39% [at 11.6 µM] (inactive)');

----------
experiment: Primary qHTS for inhibitors of nuclear receptor binding SET domain protein 2 (NSD2) in an RCH-ACV wild type WT cells (2C) (AID 1645877); conditions: RCH-ACV (leukaemia line) NSD2 WT (2C) viability, CellTiter-Glo, 72 h; series mostly up to 44.9 µM; note: nearly all actives have a fitted effect of over 70% in size
Inconclusive results are not listed. Calls of active or inactive are those of the source. Calls come from the whole dose curve; as a rule, active = well fitted inhibition curve with a large enough effect; inconclusive = small, poorly fitted or top-dose-only effect; inactive = no such curve, though single readings can be large or run the other way.
Entry note: the call must match one of 1 (active), 0 (inactive)

Problem: Hey, what did the test say about COc1c(Nc2ncc(Cl)c(N[C@H]3[C@@H](C(N)=O)[C@@H]4C=C[C@H]3C4)n2)ccc2c1CC[C@@H](N1CCOCC1)CC2 ?
Solution: 1

Problem: Hey, what did the test say about CC/C=C\CCO[C@@H]1O[C@H](CO[C@@H]2OC[C@H](O)[C@H](O)[C@H]2O)[C@@H](O)[C@H](O)[C@H]1O ?
Solution: 0

Problem: Hey, what did the test say about COC(=O)C1(C)CCC2(C(=O)O)CCC3(C)C(=CCC4C5(C)CC(O)C(OC6OCC(O)C(O)C6O)C(C)(CO)C5CCC43C)C2C1 (configuration not stated) ?
Solution: 0

Problem: Hey, what did the test say about Cn1c2ccc(F)cc2c2c(C(=O)N3CCCC3)cn(-c3ccccc3)c(=O)c21 ?
Solution: 0

Problem: Hey, what did the test say about O=C(O)/C=C/c1ccc(-c2ccc(O)c(C34CC5CC(CC(C5)C3)C4)c2)cc1 ?
Solution: 1

Problem: Hey, what did the test say about O=C(CSc1nc2c(c(=O)n1-c1ccccc1)SCC2)Nc1ccc(-c2ccccc2)cn1 ?
Solution: 1

Problem: Hey, what did the test say about NC1CCCCN(c2c(F)cc3c(=O)c(C(=O)O)cn(C4CC4)c3c2Cl)C1 (configuration not stated) ?
Solution: 0

Problem: Hey, what did the test say about CC(C)(C)c1ccc(S(=O)(=O)Nc2ccc(Cl)cc2C(=O)c2cc[n+]([O-])cc2)cc1 ?
Solution: 0

Problem: Hey, what did the test say about Nc1nc2c(c(N3CCNCC3)n1)CCC1=C2[C@@H]2CCCC[C@@H]2O1 ?
Solution: 1

Problem: Hey, what did the test say about C=C[C@H]1[C@H](O[C@@H]2O[C@H](CO)[C@@H](O)[C@H](O)[C@H]2O)OC=C(C(=O)OC)[C@H]1C[C@@H]1c2cc(O)c(O)cc2CCN1C(C)=O ?
Solution: 0

Problem: Hey, what did the test say about Cc1ccc(C(=O)Nc2noc3ccccc23)cc1 ?
Solution: 0

Problem: Hey, what did the test say about CC(C)c1nnc(-c2ccc(-c3ccccc3)nc2)n1-c1cccc2nonc12 ?
Solution: 0

Problem: Hey, what did the test say about CC(=O)O[C@H]1C[C@@](O)(C(C)C)C2[C@@H](OC(=O)c3ccc(O)cc3)C[C@@]3(C)O[C@H]3C[C@]21C (some centres not stated) ?
Solution: 0

Problem: Hey, what did the test say about COc1ccc(Oc2cc(C)c(-c3csc(NC(=O)c4ccncc4)n3)c(C)c2)cc1 ?
Solution: 1

Problem: Hey, what did the test say about C=C1CCC2C(C)(C(=O)O)CCCC2(C)C1CCC(C)CC(=O)O (configuration not stated) ?
Solution: 0

Problem: Hey, what did the test say about C#CCN(Cc1cc2c(=O)[nH]c(C)nc2cc1Br)c1ccc(C(=O)NCc2cccnc2)cc1 ?
Solution: 1

Problem: Hey, what did the test say about CCNC(=O)Nc1ccc(-c2nc3c(c(N4CCOC[C@@H]4C)n2)CCN(c2ncccn2)C3)cc1 ?
Solution: 1

Provenance of the data: PubChem BioAssay (NCATS)
